target: human aurora B (Homo sapiens (Human)); experiment: Inhibitory activity on aurora B kinase; format: biochemical; details: ATP 40 μM, 60 minutes
Sequence (Q96GD4 whole entry): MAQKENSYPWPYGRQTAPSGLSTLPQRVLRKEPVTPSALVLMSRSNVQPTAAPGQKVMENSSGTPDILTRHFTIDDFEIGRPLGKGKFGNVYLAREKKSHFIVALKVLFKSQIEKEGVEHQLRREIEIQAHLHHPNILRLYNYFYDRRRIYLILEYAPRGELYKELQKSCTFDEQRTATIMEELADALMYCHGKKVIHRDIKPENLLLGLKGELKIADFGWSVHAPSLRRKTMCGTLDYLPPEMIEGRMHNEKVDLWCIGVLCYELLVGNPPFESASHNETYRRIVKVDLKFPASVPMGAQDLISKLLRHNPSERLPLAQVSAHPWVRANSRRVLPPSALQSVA
Sequence (Q9NQS7 803-918 partner): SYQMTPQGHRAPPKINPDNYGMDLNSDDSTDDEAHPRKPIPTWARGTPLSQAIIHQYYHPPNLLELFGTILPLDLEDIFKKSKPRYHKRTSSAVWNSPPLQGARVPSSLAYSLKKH
MEASURED_PARAMETER: pIC50
To interpret pIC50, take it as minus log10 of a concentration measured in moles per litre.

STRUCTURE_STRING	TEST_RESULT
Cc1cc(Nc2nc(CC3(C(=O)N4CCC4)CCN(C(=O)c4cccc(Cl)c4F)CC3)ccc2F)n[nH]1	6.17

Next up:
Ask: Entry "Cc1cc(Nc2nc(CC3(C(=O)O)CCN(C(=O)c4cccc(Cl)c4F)CC3)ccc2C#N)n[nH]1" : reported pIC50 = ?
Result: 6.49

----------
target: human aurora A (Homo sapiens (Human), UniProt O14965)
Sequence (O14965 whole entry): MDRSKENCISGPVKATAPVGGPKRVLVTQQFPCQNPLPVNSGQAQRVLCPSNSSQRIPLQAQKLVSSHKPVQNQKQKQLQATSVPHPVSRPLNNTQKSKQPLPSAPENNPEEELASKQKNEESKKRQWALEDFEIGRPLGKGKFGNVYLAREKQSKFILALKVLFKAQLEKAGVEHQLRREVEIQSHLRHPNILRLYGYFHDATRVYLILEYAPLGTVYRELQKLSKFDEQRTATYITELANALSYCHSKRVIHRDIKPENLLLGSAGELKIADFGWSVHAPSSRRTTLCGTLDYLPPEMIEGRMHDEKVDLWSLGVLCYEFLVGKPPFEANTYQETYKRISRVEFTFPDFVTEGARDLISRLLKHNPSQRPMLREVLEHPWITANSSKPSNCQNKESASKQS
MEASURED_PARAMETER: IC50 (nM)
State the answer as a number, implicitly in nM.

Ask: State its IC50 on human aurora A (Homo sapiens (Human), UniProt O14965): "Cc1cc(Nc2nc(CC3(C(=O)O)CCN(C(=O)c4cccc(Cl)c4F)CC3)ccc2C#N)n[nH]1"
Result: 220

Taken from patent US9346787B2.
